Tested on: Human immunodeficiency virus 1
experiment_summary: Antiviral activity against wild type HIV-1 IIIB infected in human MT4 cells assessed as protection against virus-induced cytopathic effect incubated for 5 days by MTT assay
Type: functional, organism-based
experimental_conditions: Human immunodeficiency virus 1, IIIB, MT4, 120 h
assay_metric: pEC50
Keep in mind that pEC50 stands for -log10 of concentration in molar terms.

{"smiles": "O=C1Nc2ccc(Cl)cc2[C@@](C#CC2CC2)(C(F)(F)F)O1", "assay_metric": "pEC50", "quantitative_readout": 8.15}
{"smiles": "N#Cc1ccc(Nc2ncc(C(N)=O)c(Oc3ccc(-c4ccc(C#N)cc4)cc3F)n2)cc1", "assay_metric": "pEC50", "quantitative_readout": 6.79}
{"smiles": "CONC(=O)c1cnc(Nc2ccc(C#N)cc2)nc1Oc1c(C)cc(-c2ccc(C#N)cc2)cc1C", "assay_metric": "pEC50", "quantitative_readout": 8.70}

Now let's try a different one.
Consider the compound shown here: CNC(=O)c1cnc(Nc2ccc(C#N)cc2)nc1Oc1c(C)cc(-c2ccc(C#N)cc2)cc1C What is its recorded pEC50?
8.52

###

experiment_summary: Selectivity index, ratio of CC50 for cytotoxicity against human MT4 cells to EC50 for antiviral activity against wild type HIV-1 IIIB infected in human MT4 cells
Type: toxicity, cell-based
experimental_conditions: read-out: Ratio CC50/EC50
assay_metric: selectivity ratio
Enter the number alone.

Some solved cases for reference:
{"smiles": "Cc1cc(-c2ccc(C#N)cc2)cc(C)c1Oc1nc(Nc2ccc(C#N)cc2)ncc1C(=O)NC(C)C", "quantitative_readout": 1750}
{"smiles": "N#Cc1ccc(Nc2nccc(Oc3ccc4cc(C#N)ccc4c3Br)n2)cc1", "quantitative_readout": 181000}
{"smiles": "C#CCNC(=O)c1cnc(Nc2ccc(C#N)cc2)nc1Oc1c(C)cc(-c2ccc(C#N)cc2)cc1C", "quantitative_readout": 25700}
{"smiles": "COCCNC(=O)c1cnc(Nc2ccc(C#N)cc2)nc1Oc1c(C)cc(-c2ccc(C#N)cc2)cc1C", "quantitative_readout": 28100}

Now let's try a different one.
Consider the compound shown here: Cc1cc(-c2ccc(C#N)cc2)cc(C)c1Oc1nc(Nc2ccc(C#N)cc2)ncc1C(=O)NCCCO What is its recorded selectivity ratio?
5590

###

experimental_target: Human immunodeficiency virus type 1 reverse transcriptase (Human immunodeficiency virus 1, UniProt Q72547)
experiment_summary: Inhibition of recombinant wild type HIV-1 reverse transcriptase using DNA/RNA as substrate incubated for 40 mins by Pico-green dye based spectrofluorometric analysis
pIC50: −log10 of the molar value.
Classification field: enter 1 (yes) for pIC50 values not below 7, 0 (no) for values below it.

Does the reported pIC50 for N#Cc1ccc(Nc2ncc(C(N)=O)c(Oc3c(F)cc(-c4ccc(C#N)cc4)cc3F)n2)cc1 fall at or above the 7 mark?
1 (yes)

Does the reported pIC50 for Cc1cc(-c2ccc(C#N)cc2)cc(C)c1Oc1nc(Nc2ccc(C#N)cc2)ncc1C(=O)NC1CCC1 fall at or above the 7 mark?
0 (no)

Does the reported pIC50 for N#Cc1ccc(Nc2ncc(C(N)=O)c(Oc3ccc(-c4ccc(C#N)cc4)cc3F)n2)cc1 fall at or above the 7 mark?
1 (yes)

###

Recorded pEC50, one value per entry.
Test system: Human immunodeficiency virus 1
experiment_summary: Antiviral activity against wild type HIV-1 IIIB harboring reverse transcriptase […] mutant infected in human MT4 cells assessed as protection against virus-induced cytopathic effect incubated for 5 days by MTT assay
Type: functional, organism-based
experimental_conditions: Human immunodeficiency virus 1, IIIB, MT4, 120 h
Keep in mind that pEC50 stands for -log10 of concentration in molar terms.

Some solved cases for reference:
{"smiles": "CCCNC(=O)c1cnc(Nc2ccc(C#N)cc2)nc1Oc1c(C)cc(-c2ccc(C#N)cc2)cc1C", "experimental_target": "Human immunodeficiency virus 1", "quantitative_readout": 7.26}
{"smiles": "CONC(=O)c1cnc(Nc2ccc(C#N)cc2)nc1Oc1c(C)cc(-c2ccc(C#N)cc2)cc1C", "experimental_target": "Human immunodeficiency virus 1", "quantitative_readout": 7.89}

Consider the molecule shown here: N#Cc1ccc(Nc2ncc(C(N)=O)c(Oc3c(F)cc(-c4ccc(C#N)cc4)cc3F)n2)cc1 What is its recorded pEC50?
5.92

Consider the molecule shown here: N#Cc1ccc(Nc2ncc(C(N)=O)c(Oc3ccc(-c4ccc(C#N)cc4)cc3Cl)n2)cc1 What is its recorded pEC50?
4.12

###

experiment_summary: Resistant factor, ratio of EC50 for antiviral activity against HIV-1 IIIB harboring reverse transcriptase E138K mutant to EC50 for antiviral activity against wild type HIV-1 IIIB
Format: functional
assay_metric: Ratio EC50

Some solved cases for reference:
{"smiles": "Cc1cc(-c2ccc(C#N)cc2)cc(C)c1Oc1nc(Nc2ccc(C#N)cc2)ncc1C(=O)NC1CCCC1", "result": 4}
{"smiles": "Cc1cc(-c2ccc(C#N)cc2)cc(C)c1Oc1nc(Nc2ccc(C#N)cc2)ncc1C(=O)NC1CC1", "result": 2.8}

Now let's try a different one.
Consider the molecule shown here: Cc1cc(-c2ccc(C#N)cc2)cc(C)c1Oc1nc(Nc2ccc(C#N)cc2)ncc1C(=O)NC1CCCCC1 What is its recorded Ratio EC50?
4.7

###

experiment_summary: Cytotoxicity against human MT4 cells assessed as reduction in cell viability incubated for 5 days by MTT assay
Format: toxicity, cell-based
experimental_conditions: time 5 day
Recorded CC50 at 120 h, one value per entry.

Some solved cases for reference:
{"smiles": "Cc1ccnc2c1NC(=O)c1cccnc1N2C1CC1", "CC50 at 120 h": "> 15 µM"}
{"smiles": "CCNC(=O)c1cnc(Nc2ccc(C#N)cc2)nc1Oc1c(C)cc(-c2ccc(C#N)cc2)cc1C", "CC50 at 120 h": "151 µM"}
{"smiles": "CNC(=O)c1cnc(Nc2ccc(C#N)cc2)nc1Oc1c(C)cc(-c2ccc(C#N)cc2)cc1C", "CC50 at 120 h": "> 42.1 µM"}
{"smiles": "N#Cc1ccc(Nc2ncc(C(N)=O)c(Oc3ccc(-c4ccc(C#N)cc4)cc3F)n2)cc1", "CC50 at 120 h": "> 278 µM"}
{"smiles": "Cc1cc(C#N)cc(C)c1Oc1nc(Nc2ccc(C#N)cc2)nc(N)c1Br", "CC50 at 120 h": "> 4.61 µM"}

Consider the molecule shown here: Cc1cc(-c2ccc(C#N)cc2)cc(Cl)c1Oc1nc(Nc2ccc(C#N)cc2)ncc1C(N)=O What is its recorded CC50 at 120 h?
> 41.6 µM

Consider the molecule shown here: CCCNC(=O)c1cnc(Nc2ccc(C#N)cc2)nc1Oc1c(C)cc(-c2ccc(C#N)cc2)cc1C What is its recorded CC50 at 120 h?
86.6 µM

Consider the molecule shown here: Cc1cc(-c2ccc(C#N)cc2)cc(C)c1Oc1nc(Nc2ccc(C#N)cc2)ncc1C(=O)NC1CCCC1 What is its recorded CC50 at 120 h?
> 236 µM

Consider the molecule shown here: Cc1cc(-c2ccc(C#N)cc2)cc(C)c1Oc1nc(Nc2ccc(C#N)cc2)ncc1C(=O)NC1CCC1 What is its recorded CC50 at 120 h?
> 243 µM

Consider the molecule shown here: N#Cc1ccc(Nc2ncc(C(N)=O)c(Oc3ccc(-c4ccc(C#N)cc4)cc3Cl)n2)cc1 What is its recorded CC50 at 120 h?
> 270 µM

Consider the molecule shown here: Cc1cc(-c2ccc(C#N)cc2)cc(C)c1Oc1nc(Nc2ccc(C#N)cc2)ncc1C(=O)NCCCO What is its recorded CC50 at 120 h?
31.4 µM

Consider the molecule shown here: Cc1cc(-c2ccc(C#N)cc2)cc(C)c1Oc1nc(Nc2ccc(C#N)cc2)ncc1C(=O)NC1CC1 What is its recorded CC50 at 120 h?
116 µM

###

Tested on: Human immunodeficiency virus 1
experiment_summary: Antiviral activity against wild type HIV-1 IIIB infected in human MT4 cells assessed as protection against virus-induced cytopathic effect incubated for 5 days by MTT assay
Assay type: functional, organism-based
experimental_conditions: Human immunodeficiency virus 1, IIIB, MT4, 120 h
pEC50: −log10 of the molar value.
Classification field: enter yes (1) for pEC50 values not below 8, no (0) for values below it.

{"smiles": "Cc1cc(-c2ccc(C#N)cc2)cc(C)c1Oc1nc(Nc2ccc(C#N)cc2)ncc1C(=O)NC1CCC1", "category": "no (0)"}
{"smiles": "Cc1cc(-c2ccc(C#N)cc2)cc(C)c1Oc1nc(Nc2ccc(C#N)cc2)ncc1C(=O)NCCO", "category": "yes (1)"}
{"smiles": "C#CCNC(=O)c1cnc(Nc2ccc(C#N)cc2)nc1Oc1c(C)cc(-c2ccc(C#N)cc2)cc1C", "category": "yes (1)"}
{"smiles": "Cc1cc(-c2ccc(C#N)cc2)cc(C)c1Oc1nc(Nc2ccc(C#N)cc2)ncc1C(=O)NC(C)C", "category": "no (0)"}
{"smiles": "N#Cc1ccc(Nc2ncc(C(N)=O)c(Oc3c(F)cc(-c4ccc(C#N)cc4)cc3F)n2)cc1", "category": "no (0)"}

Alright, here's another compound for you.
Does the reported pEC50 for N#Cc1ccc(Nc2ncc(C(N)=O)c(Oc3ccc(-c4ccc(C#N)cc4)cc3Cl)n2)cc1 fall at or above the 8 mark?
no (0)
